B1: Gamma-crystallin D, residues 90 to 170; numbered along this chain, P07320 (parent)
chain: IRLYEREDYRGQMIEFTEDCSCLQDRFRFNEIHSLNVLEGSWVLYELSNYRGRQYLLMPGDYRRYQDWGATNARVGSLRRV

Variants of: B1
Assay: abundance fitness (aPCA) (normalised: wild type 0, dead -1); higher = more abundant; growth selection in yeast, the domain comes from the species named
Conditions: Homo sapiens
Classification scheme (abundance fitness): bucket A: < -0.1; bucket B: ≥ -0.1 and < 0.001; bucket C: ≥ 0.001

**Q:** Lab note: which band did L23H land in?
**A:** bucket A

**Q:** Try this variant next: R53S
**A:** bucket C

**Q:** Same question, R10Q this time
**A:** bucket B

**Q:** Now consider F16L .
**A:** bucket C

**Q:** Record: H33F
**A:** bucket B

**Q:** Repeat for the following variant: L56A
**A:** bucket C

**Q:** Check M58N too.
**A:** bucket C

**Q:** Now try Q24D .
**A:** bucket B

**Q:** What about C20M ?
**A:** bucket B

**Q:** Same read-out for R6S ?
**A:** bucket B

**Q:** Request: M13V
**A:** bucket C

**Q:** What about Y55C ?
**A:** bucket B

**Q:** Please do the same for N49L as well.
**A:** bucket C

**Q:** Also F27P ?
**A:** bucket C

**Q:** Follow-up entry: N30D
**A:** bucket C

**Q:** Try W42G next.
**A:** bucket A

**Q:** Input M13Q
**A:** bucket A

**Q:** Next variant: L35N
**A:** bucket A

**Q:** And D25F ?
**A:** bucket B

**Q:** What do you have for Q24C ?
**A:** bucket B

**Q:** Now the same for D19I
**A:** bucket A

**Q:** Then this variant: H33Q
**A:** bucket C

**Q:** Now the variant D19W
**A:** bucket A

**Q:** And the next one, Y9E ?
**A:** bucket C

**Q:** And then L47Q , what is it?
**A:** bucket C

**Q:** Another variant: E15W
**A:** bucket B

**Q:** What about this variant? R26N
**A:** bucket C

**Q:** E46Q ?
**A:** bucket B

**Q:** Now consider G40A and answer again.
**A:** bucket B

**Q:** Queued: R53I
**A:** bucket A

**Q:** Could you do the same for V37S , please?
**A:** bucket C

**Q:** Record: L38H
**A:** bucket C

**Q:** One more variant: L57M
**A:** bucket C

**Q:** What about F16N ?
**A:** bucket C

**Q:** Also R26Y ?
**A:** bucket C

**Q:** Record: L56W
**A:** bucket C

**Q:** Would you kindly repeat that for F27T ?
**A:** bucket B

**Q:** Moving on to the next variant: D25R
**A:** bucket B

**Q:** Another variant to check: R28Y
**A:** bucket B

**Q:** Next: G40S
**A:** bucket B

**Q:** Also I14N , if possible.
**A:** bucket C

**Q:** What would you report for Y45T ?
**A:** bucket B

**Q:** Also, H33P please.
**A:** bucket C

**Q:** Now consider N49E .
**A:** bucket C

**Q:** // query: V37F
**A:** bucket C

**Q:** Also need H33T , thanks.
**A:** bucket B

**Q:** # repeat for E5K
**A:** bucket C

**Q:** Okay, and S41M ?
**A:** bucket A

**Q:** Would you kindly repeat that for Q54Y ?
**A:** bucket A

**Q:** Request: G52H
**A:** bucket A

**Q:** Please do the same for M13W as well.
**A:** bucket A

**Q:** Also N36C , if possible.
**A:** bucket B

**Q:** Note, next up: R6C
**A:** bucket C

**Q:** What do you have for E5C ?
**A:** bucket A

**Q:** Thanks! And L23K ?
**A:** bucket B

**Q:** Another variant to check: Q12F
**A:** bucket A

**Q:** What do we get for V37G ?
**A:** bucket A

**Q:** Same again, this time with D8G
**A:** bucket B

**Q:** Also Y55R ?
**A:** bucket C

**Q:** Then what about the variant S21V ?
**A:** bucket B

**Q:** And for P59E ?
**A:** bucket B

**Q:** What do we get for F27N ?
**A:** bucket B

**Q:** Do the same for L47K please
**A:** bucket A

**Q:** E46T ?
**A:** bucket B

**Q:** Moving on to the next variant: R10K
**A:** bucket C

**Q:** And L35H ?
**A:** bucket A

**Q:** Please do the same for D25P as well.
**A:** bucket C

**Q:** Also Q24R , if possible.
**A:** bucket C

**Q:** Follow-up entry: E46F
**A:** bucket A

**Q:** Moving on to the next variant: E39K
**A:** bucket B

**Q:** Same thing, different variant: S34I
**A:** bucket A

**Q:** What would you report for L57D ?
**A:** bucket A

**Q:** Now consider C20E .
**A:** bucket C

**Q:** Proceed to M58F
**A:** bucket B

**Q:** // next record Q24P
**A:** bucket C

**Q:** Repeat for the following variant: Y4E
**A:** bucket A

**Q:** Okay, and T17S ?
**A:** bucket B

**Q:** Also check S48Q
**A:** bucket A

**Q:** Record: E39F
**A:** bucket A

**Q:** Would you mind doing T17K as well?
**A:** bucket B

**Q:** What about this variant? L44N
**A:** bucket A

**Q:** Next variant: E5H
**A:** bucket A

**Q:** Query L3P next
**A:** bucket A

**Q:** Now consider G52A and answer again.
**A:** bucket A

**Q:** Consider next the variant P59M in the same way.
**A:** bucket B
